Compiled from multiple publications: IC50 readings for Cytochrome P450 2C9 (Homo sapiens, UniProt P11712).

INSERT INTO measurements (molecule, result) VALUES
  ('CC#CCOc1cnc(C(=O)Nc2ccc(F)c([C@]3(C)C[C@@H](C(F)(F)F)OC(N)=N3)c2)cn1', '33 µM'),
  ('Cc1cc(Nc2ncc(Cl)c(Nc3cn(C)nc3S(=O)(=O)C(C)C)n2)c(OC2CC2)cc1C1CCN(C(=O)CC#N)CC1', '> 10 µM'),
  ('COCC(F)(F)[C@H]1OC(N)=N[C@](C)(c2cc(NC(=O)c3cnc(OCF)cn3)ccc2F)[C@H]1F', '≥ 10 µM');

stdin: Specify measured IC50 for COc1cc2c(NC3CCS(=O)(=O)CC3)nc(N3CCC(F)(F)CC3)nc2cc1C#CCN1CCCC1 .
stdout: > 100 µM

stdin: Specify measured IC50 for C[C@]1(c2cc(NC(=O)c3ncc(C#N)cc3Cl)ccc2F)N=C(N)OCC1(F)F .
stdout: > 10 µM

stdin: Specify measured IC50 for Cc1ccc(-c2nn3c(c2NC(=O)CS(C)(=O)=O)C(=O)N[C@@]2(CCc4cc(OCC(F)(F)F)ccc42)C3)nc1 .
stdout: > 20 µM

stdin: Specify measured IC50 for Cc1ccc(-c2nn3c(c2NC(=O)CS(C)(=O)=O)C(=O)N[C@@]2(CCc4cc(OCC(F)(F)F)ccc42)C3)cc1 .
stdout: > 20 µM

stdin: Specify measured IC50 for Cc1c(F)cccc1Oc1cc(=O)n(C)c(Nc2ccc(I)cc2F)c1C(N)=O .
stdout: > 10 µM

stdin: Specify measured IC50 for CC(=O)NCCSc1nonc1/C(=N/O)Nc1ccc(F)c(Br)c1 .
stdout: 15.9 µM

stdin: Specify measured IC50 for CC[C@@H](C#N)NC(=O)c1ccc(-c2nc(Nc3cnn(C4CCN(C)CC4)c3)ncc2C)cc1 .
stdout: > 50 µM

stdin: Specify measured IC50 for COc1ccc(C(=O)Nc2ccc(F)c([C@@]3(C)N=C(N)O[C@H](C(F)(F)C4CC4)[C@@H]3F)c2)nn1 .
stdout: ≥ 10 µM

stdin: Specify measured IC50 for COc1cc(N2CCc3nc(NC(=O)NCc4cc(=O)[nH]o4)sc3C2)nc(OC)n1 .
stdout: > 20 µM

stdin: Specify measured IC50 for O=C(c1ccc(O)c(Cl)c1)N1CCOc2ccccc21 .
stdout: > 50 µM

stdin: Specify measured IC50 for C[C@@H](F)COc1ccc(C(=O)N2CCC(F)(F)/C(=C\C(=O)NC[C@H](O)CO)c3ccccc32)c(C(F)(F)F)c1 .
stdout: > 50 µM

stdin: Specify measured IC50 for O=C(c1cc(Cl)c(O)c([N+](=O)[O-])c1)N1CCOc2ccccc21 .
stdout: 20 µM

stdin: Specify measured IC50 for CCN(CC)C(=O)c1cc(-c2cccs2)nc2c1c(C)nn2-c1ccccc1 .
stdout: 4.9 µM

stdin: Specify measured IC50 for CC#CCOc1cnc(C(=O)Nc2ccc(F)c([C@@]3(C)N=C(N)O[C@@H]4CCC(F)(F)[C@@H]43)c2)cn1 .
stdout: > 10 µM

stdin: Specify measured IC50 for C[C@H](c1ccc(F)cc1)n1cncc1CN1CCN(S(=O)(=O)c2cnc(N3CCC(N)(CO)CC3)s2)CC1 .
stdout: 9.73 µM

stdin: Specify measured IC50 for COC(=O)c1cccc2c1OCCN2C(=O)c1cc(Cl)c(O)c(Cl)c1 .
stdout: 43 µM

stdin: Specify measured IC50 for C[C@H]1SC(N)=N[C@](C)(c2nc(NC(=O)c3ccc(F)cn3)ccc2F)[C@H]1F .
stdout: ≥ 10 µM
